# assay_procedure: recombinant UMI read abundance after kanamycin selection (control-corrected) (log10(CPM+1)); higher = more efficient recombination; extreme values may be limits of the assay; sequences stand for … in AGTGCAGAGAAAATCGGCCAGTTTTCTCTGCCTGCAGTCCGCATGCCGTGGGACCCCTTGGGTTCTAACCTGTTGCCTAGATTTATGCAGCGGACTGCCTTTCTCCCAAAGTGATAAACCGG…AGGTTGGTTTCACT; site = the 11-nt donor
measurement_label: recombinant UMI read abundance (log10)
Give the figure only, with no unit attached.

*Q* Quick one: recombinant UMI read abundance (log10) for CTAGTCACATGGACCGGTTTTCCCGGTAATCCGTATTTGGG (site CAAGTCACTCC) ?
*A* 0.00773

*Q* Quick one: recombinant UMI read abundance (log10) for GTTGCCTCATGGACCGGTTTTCCCGGTAATCCGTATTTGGA (site GTTGCCTCTTC) ?
*A* 1.21

*Q* Quick one: recombinant UMI read abundance (log10) for TTGTGTACATGGACCGGTTTTCCCGGTAATCCGTATTTGCA (site TTGTGTACTTG) ?
*A* 0.756

*Q* Quick one: recombinant UMI read abundance (log10) for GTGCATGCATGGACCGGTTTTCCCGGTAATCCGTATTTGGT (site GTGCATGCTAA) ?
*A* 0.0107

====

# assay_procedure: recombinant UMI read abundance after kanamycin selection (control-corrected) (log10(CPM+1)); higher = more efficient recombination; extreme values may be limits of the assay; sequences stand for … in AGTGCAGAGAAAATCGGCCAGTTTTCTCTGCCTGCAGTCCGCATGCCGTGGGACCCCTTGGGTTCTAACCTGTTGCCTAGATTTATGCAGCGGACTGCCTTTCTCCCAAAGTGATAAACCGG…AGGTTGGTTTCACT; site = the 11-nt donor
measurement_label: recombinant UMI read abundance (log10)
Give the figure only, with no unit attached.

Consider the following illustrative entries.
| input_sequence | recombinant UMI read abundance (log10) |
| --- | --- |
| AGAGTGGCATGGACCGGTTTTCCCGGTAATCCGTATTTGGT (site AGAGTGGCTAC) | 1.47 |
| TCACGCGCATGGACCGGTTTTCCCGGTAATCCGTATTTGCT (site TCACGCGCTAG) | 1.67 |
| TCAACCGCATGGACCGGTTTTCCCGGTAATCCGTATTTGCG (site TCGACCGCTCG) | 0.00292 |
| TGGAGTGCATGGACCGGTTTTCCCGGTAATCCGTATTTGAC (site TGGAGTGCTGT) | 2.21 |

// moving on: another record for recombinant UMI read abundance (log10)
*Q* Quick one: recombinant UMI read abundance (log10) for AACCATCCATGGACCGGTTTTCCCGGTAATCCGTATTTGAT (site AACCGTCCTAT) ?
*A* 0.00892

====

# assay_procedure: recombinant UMI read abundance after kanamycin selection (control-corrected) (log10(CPM+1)); higher = more efficient recombination; extreme values may be limits of the assay; sequences stand for … in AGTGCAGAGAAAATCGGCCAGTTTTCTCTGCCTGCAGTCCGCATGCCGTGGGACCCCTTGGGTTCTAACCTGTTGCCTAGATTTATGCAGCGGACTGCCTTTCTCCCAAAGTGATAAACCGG…AGGTTGGTTTCACT; site = the 11-nt donor
measurement_label: recombinant UMI read abundance (log10)

Consider the following illustrative entries.
| input_sequence | result |
| --- | --- |
| CGCCACACATGGACCGGTTTTCCCGGTAATCCGTATTTGTA (site CCCCACACTTA) | 0.261 |
| TTCTTCACATGGACCGGTTTTCCCGGTAATCCGTATTTGTC (site TTCTTCACTGA) | 0 |
| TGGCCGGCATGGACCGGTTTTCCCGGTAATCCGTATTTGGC (site CGGCCGGCTGC) | 0 |
| CCCGGTCCATGGACCGGTTTTCCCGGTAATCCGTATTTGCC (site CCCGGTCCTCG) | 0.0293 |
| TCACAGACATGGACCGGTTTTCCCGGTAATCCGTATTTGCG (site TCACAGACTCG) | 2.16 |
| ACTAGAGCATGGACCGGTTTTCCCGGTAATCCGTATTTGAG (site ACTAGACCTCT) | 0 |
| ATCGAAGCATGGACCGGTTTTCCCGGTAATCCGTATTTGAG (site ATCCAAGCTCT) | 0.355 |
| CGATCCTCATGGACCGGTTTTCCCGGTAATCCGTATTTGCT (site CGATCCTCTAG) | 2.82 |

*Q* Quick one: recombinant UMI read abundance (log10) for TATATGGCATGGACCGGTTTTCCCGGTAATCCGTATTTGGT (site TATATGGCTAC) ?
*A* 0.39

*Q* Quick one: recombinant UMI read abundance (log10) for AGGACGACATGGACCGGTTTTCCCGGTAATCCGTATTTGAC (site AGGACTACTGT) ?
*A* 0

*Q* Quick one: recombinant UMI read abundance (log10) for GGAAGCTCATGGACCGGTTTTCCCGGTAATCCGTATTTGTT (site GGAAGCTCTAA) ?
*A* 2.26

*Q* Quick one: recombinant UMI read abundance (log10) for TTTCCGGCATGGACCGGTTTTCCCGGTAATCCGTATTTGTA (site TTTCCGGCTTA) ?
*A* 0.262

*Q* Quick one: recombinant UMI read abundance (log10) for GGGACACCATGGACCGGTTTTCCCGGTAATCCGTATTTGCA (site GGGCCACCTTG) ?
*A* 0

====

# assay_procedure: recombinant barcode read abundance after kanamycin selection (control-corrected) (log10(CPM+1)); higher = more efficient recombination; sequences stand for … in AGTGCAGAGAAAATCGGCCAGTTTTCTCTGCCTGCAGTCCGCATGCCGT…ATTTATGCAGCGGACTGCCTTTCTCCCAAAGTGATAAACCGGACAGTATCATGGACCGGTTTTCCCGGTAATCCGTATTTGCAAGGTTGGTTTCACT; site = the 11-nt target
measurement_label: recombinant barcode read abundance (log10)
Give the figure only, with no unit attached.

| input_sequence | quantitative_readout |
| --- | --- |
| AAACAGTCTTGGGTTCTAACCTGTTGCCTAC [AAACAGTCTAG_LTGcore_CT_RTGcore_GT] (site AAACAGTCTAG) (LTG core: CT, RTG core: GT) | 0.553 |
| CGCGCCCTCTGGGTTCTAACCTGTTGCGGAG [CGCGCCCCTCC_LTGcore_TC_RTGcore_CT] (site CGCGCCCCTCC) (LTG core: TC, RTG core: CT) | 0.264 |

// moving on: another record for recombinant barcode read abundance (log10)
*Q* Quick one: recombinant barcode read abundance (log10) for TTATAAACTTGGGTTCTAACCTGTTGCCTAT [TTATAAACTAG_LTGcore_CT_RTGcore_AT] (site TTATAAACTAG) (LTG core: CT, RTG core: AT) ?
*A* 0.302

====

Quick reference: recombinant UMI read abundance (log10) of the listed items.
# assay_procedure: recombinant UMI read abundance after kanamycin selection (control-corrected) (log10(CPM+1)); higher = more efficient recombination; extreme values may be limits of the assay; sequences stand for … in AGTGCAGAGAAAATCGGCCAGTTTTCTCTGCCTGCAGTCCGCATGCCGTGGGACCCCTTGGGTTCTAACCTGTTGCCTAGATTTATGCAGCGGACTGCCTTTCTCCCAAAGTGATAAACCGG…AGGTTGGTTTCACT; site = the 11-nt donor

Consider the following illustrative entries.
| input_sequence | measurement_label | result |
| --- | --- | --- |
| CCTTCTACATGGACCGGTTTTCCCGGTAATCCGTATTTGAT (site CCTTCTACTAT) | recombinant UMI read abundance (log10) | 0 |
| CGGGAACCATGGACCGGTTTTCCCGGTAATCCGTATTTGTT (site CGGGAACCTAT) | recombinant UMI read abundance (log10) | 0.0108 |
| CCCGAGCCATGGACCGGTTTTCCCGGTAATCCGTATTTGCC (site CCCAAGCCTGG) | recombinant UMI read abundance (log10) | 0 |

*Q* Quick one: recombinant UMI read abundance (log10) for ACTAGACCATGGACCGGTTTTCCCGGTAATCCGTATTTGGA (site ACTAGACCTTC) ?
*A* 0.014

*Q* Quick one: recombinant UMI read abundance (log10) for ACTTGATCATGGACCGGTTTTCCCGGTAATCCGTATTTGGC (site ACTTGATCTGC) ?
*A* 1.24

*Q* Quick one: recombinant UMI read abundance (log10) for CGCTCATCATGGACCGGTTTTCCCGGTAATCCGTATTTGCT (site CGATCATCTAG) ?
*A* 0

*Q* Quick one: recombinant UMI read abundance (log10) for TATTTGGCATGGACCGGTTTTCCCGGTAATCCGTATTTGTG (site TACTTGGCTCA) ?
*A* 0.00946

*Q* Quick one: recombinant UMI read abundance (log10) for CAAGCATCATGGACCGGTTTTCCCGGTAATCCGTATTTGCT (site CAAGCACCTAG) ?
*A* 0

*Q* Quick one: recombinant UMI read abundance (log10) for AGCTCGACATGGACCGGTTTTCCCGGTAATCCGTATTTGGC (site AGCTCGACTGC) ?
*A* 1.31
